What normalized growth was measured for each of the following?
Test: chemical genetic growth profiling, strain panel (AID 1159580);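 note: tested at 20 µM; growth read once vehicle control cultures reached saturation at 30 °C; 1 = growth at the plate median or of vehicle wells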
Settings: S. cerevisiae deletion strains, growth OD, locus YHR129C, strain ARP1, active compounds read low
Out of some 5,500 compounds screened, about 2,000 (36%) were called active. About 18% were inconclusive and are not listed. Some of the results follow.

Dear colleague, please send me the reported normalized growth for C[C@]12CCC3C(CC[C@H]4C[C@H](O)CC[C@]34C)C1CC[C@@H]2O (some centres not stated) when you can.
0.968 (inactive)

Provide one value: measured normalized growth of CC(=O)OC1CC(O)C(C)(C)C2CC(=O)C3(C)C(CCC4(C)C(c5ccoc5)OC(=O)C5OC543)C12C (configuration not stated)
0.99 (inactive)

Output normalized growth of Cc1ccc(C(=O)c2ccc(CC(=O)O)n2C)cc1
1 (inactive)

Item O=C1CCCCC/C=C/CCCCCCCCO1 : provide normalized growth
0.988 (inactive)

Kindly indicate its recorded normalized growth. Item: Clc1ccc(CSC(Cn2ccnc2)c2ccc(Cl)cc2Cl)cc1 (configuration not stated)
0.0541 (active)

Find the measured normalized growth of O=c1cccc2n1CC1CC2CN2CCCC[C@@H]12 (some centres not stated) and report it.
0.983 (inactive)

Supply reported normalized growth belonging to this compound: CC(=O)OC1CC(OC(C)=O)C2(C)C(CC(OC(C)=O)C3(C)C2CCC2(C)C(c4ccoc4)OC(=O)C4OC423)C1(C)C (configuration not stated)
0.997 (inactive)

====

Experiment: chemical genetic growth profiling, strain panel (AID 1159580)
Details: S. cerevisiae deletion strains, growth OD, locus YOL006C, strain TOP1
About 2,000 (36%) of roughly 5,500 compounds were called active. Roughly 18% stayed inconclusive and do not appear here. No stated cut-off is given here; in the data, active means normalized growth mostly below about 0.91 (no sharp cut-off); inconclusive means no clear call, values can overlap the other calls; inactive means mostly above about 0.92. This is one part of the list.
Outcomes you can answer with include only these: active, inactive

Please indicate how the test categorized CC(=O)OC1CC(O)C(C)(C)C2CC(=O)C3(C)C(CCC4(C)C(c5ccoc5)OC(=O)C5OC543)C12C (configuration not stated) .
inactive

Could you please tell me the result logged for CCCn1c(=O)c2[nH]c(C3CCCC3)nc2n(CCC)c1=O in this assay?
inactive

Kindly provide the recorded test outcome for the following compound: CNc1ccc(C(=O)CC(O)CCC(C)C2OC(=O)CC(O)CC(=O)CC(O)CC(O)CC(O)CC(O)CC3(O)CC(O)C(C(=O)OC)C(CC(OC4OC(C)C(O)C(N)C4O)/C=C/C=C/C=C/C=C/C=C/C=C/C=C/C2C)O3)cc1 (configuration not stated)
active

# lookup: test call for O=C1CCCCC/C=C/CCCCCCCCO1
inactive

Just curious, what result did N[C@@H](C(=O)O)[C@@H](O)[C@H](O)[C@H](O)CO get here?
inactive

Check the results log: what was the call for COc1cc2c(cc1OC)C1(O)C(=O)c3ccc(O)c(C(=O)O)c3OC1CO2 (configuration not stated) ?
inactive

Tell me the recorded outcome of this test for CC(=O)C1CCC2C3CCC4C[C@H](O)CCC4(C)C3C[C@H](O)C12C (some centres not stated) .
inactive

Given COc1ccc2c(c1)OCC(Cc1ccc(OC)c(OC)c1)C2=O (configuration not stated) , state the outcome it received in this test.
inactive

For COC1=CC(=O)OC(CCc2ccc(OC)c(OC)c2)C1 (configuration not stated) , what call appears in the results of this test?
inactive

Which outcome was entered for the compound O=c1oc2ccccc2cc1[N+](=O)[O-] in this test?
active

Tell me the recorded outcome of this test for CC(C)c1nc(N(C)S(C)(=O)=O)nc(-c2ccc(F)cc2)c1/C=C/[C@@H](O)C[C@@H](O)CC(=O)O .
inactive

GET /call?item= CCOC(=O)c1ccc(Oc2ccc(Cl)cc2Cl)c([N+](=O)[O-])c1 returns the recorded outcome of this test.
inactive

For C[C@]12CCC3C(CC[C@H]4C[C@H](O)CC[C@]34C)C1CC[C@@H]2O (some centres not stated) , what call appears in the results of this test?
inactive

// outcome(item) with item = C[C@]12CCC3C(CC[C@H]4C[C@@H](O)CC[C@]34C)C1CC[C@@H]2O (some centres not stated)
inactive

Could you please tell me the result logged for CN(C)CCC(c1ccccc1)c1ccccn1 (configuration not stated) in this assay?
inactive

Identify the outcome logged in this assay for the compound shown: CC(C)(CC(=O)O)CC(=O)Nc1cc(C(F)(F)F)cc(C(F)(F)F)c1
inactive

Would you mind telling me which call this test gave Fc1ccc([C@@H]2CCNC[C@H]2COc2ccc3c(c2)OCO3)cc1 ?
inactive

====

Experiment: chemical genetic growth profiling, strain panel (AID 1159580);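 note: tested at 20 µM; growth read once vehicle control cultures reached saturation at 30 °C; 1 = growth at the plate median or of vehicle wells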
Conditions: S. cerevisiae deletion strains, growth OD, locus YLR085C, strain ARP6, active compounds read low
The campaign covered roughly 5,500 compounds. About 2,000 (36%) were called active. Not shown: some 18% with an inconclusive outcome. The list shows a part of the results.
# label = criterion met if normalized growth < 0.7 else criterion not met

Dear colleague, could you confirm whether normalized growth of CN(C)c1ccc(-c2n[nH]c(=O)c3ccccc23)cc1[N+](=O)[O-] falls below 0.7? Thanks.
criterion not met

hey, is normalized growth for O=C1NC2(CCN(Cc3ccccc3)CC2)Oc2ccccc21 lower than 0.7 or not?
criterion not met

# check: normalized growth < 0.7 for CC(C)(C)NC(=S)NC1CCN(Cc2ccccc2)CC1
criterion not met

Please let me know if COc1ccc(-c2nc(-c3ccc(-c4ccccc4)cc3)cs2)cc1 shows normalized growth below 0.7.
criterion not met

Identify whether the compound CCOC(=O)c1ccc(Oc2sccc2[N+](=O)[O-])cc1 records normalized growth below 0.7.
criterion met

====

Test: chemical genetic growth profiling, strain panel (AID 1159580);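 note: tested at 20 µM; growth read once vehicle control cultures reached saturation at 30 °C; 1 = growth at the plate median or of vehicle wells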
Details: S. cerevisiae deletion strains, growth OD, locus YOR061W, strain CKA2
Screen size: about 5,500 compounds; about 2,000 (36%) were called active. Another 18% or so got no clear call; they are omitted. Rule as the data show it: active = normalized growth mostly below about 0.91 (no sharp cut-off); inconclusive = no clear call, values can overlap the other calls; inactive = mostly above about 0.92. The list shows a part of the results.
Your reply should match one of these outcome classes. active, inactive

Write down the call the test reported for this compound. Item: CC1OC(O[C@H]2/C=C/C=C/C=C/C=C/C=C/C=C/C=C/[C@H](C)[C@@H](O)[C@@H](C)[C@H](C)OC(=O)CC(O)CC(O)CCC(O)C(O)CC(O)C[C@]3(O)C[C@H](O)C(C(=O)O)C(C2)O3)C(O)[C@H](N)C1O (stereo partly drawn)
inactive

Fill in: this test's call for CC(=O)OCC(=O)[C@@]1(O)CCC2C3CCC4=CC(=O)C=CC4(C)C3[C@@H](O)C[C@@]21C (stereo partly drawn) is ___
inactive

I would be grateful if you could indicate the recorded call for N[C@@H](C(=O)O)[C@@H](O)[C@H](O)[C@H](O)CO .
inactive

Fill in: this test's call for CC(=O)NCCc1c[nH]c2ccc(O)cc12 is ___
inactive

Per the records of this test, what outcome belongs to O=S(=O)(NCc1cc(Cl)cc(Cl)c1)c1cc(C(F)(F)F)cc(C(F)(F)F)c1 ?
inactive

Record request — test call for COc1ccc2oc3ccccc3c(=O)c2c1
active

Outcome? Clc1cccc(Nc2ncc(-c3ccc4c(c3)OCCCO4)s2)c1
inactive

Just curious, what result did COc1ccc2oc(-c3ccccc3)c(OC)c(=O)c2c1 get here?
inactive

Given CC1[C@H](C)OC(=O)CC(O)CC(O)CC(O)CCC(O)C(O)C[C@]2(O)CC(O)C(C(=O)O)C(CC(OC3O[C@H](C)[C@@H](O)[C@H](N)[C@@H]3O)/C=C/C=C/C=C/C=C/CC/C=C/C=C/[C@H](C)[C@H]1O)O2 (stereo partly drawn) , state the outcome it received in this test.
active

Short answer needed: outcome of this test for C[C@]12C=CC(=O)C=C1CCC1C2[C@@H](O)C[C@@]2(C)C1CC[C@]2(O)C(=O)CO (stereo partly drawn) ?
inactive

// outcome(item) with item = CCCCCCCCCCCC(=O)OCC(COP(=O)(O)OCC(O)COP(=O)(O)OCC(COC(=O)CCCCCCCCCCC)OC(=O)CCCCCCCCCCC)OC(=O)CCCCCCCCCCC (stereo not drawn)
active

What was the test verdict on COc1ccc2c(=O)c(OC)c(-c3ccccc3)oc2c1 ?
inactive

# outcome recorded in this test, key = NC(=O)NC1NC(=O)NC1=O (stereo not drawn)
inactive

====

Assay: chemical genetic growth profiling, strain panel (AID 1159580);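 note: tested at 20 µM; growth read once vehicle control cultures reached saturation at 30 °C; 1 = growth at the plate median or of vehicle wells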
Settings: S. cerevisiae deletion strains, growth OD, locus YLR262C, strain YPT6, active compounds read low
Among all 5,500 compounds or so, about 2,000 (36%) were called active. Roughly 18% stayed inconclusive and do not appear here. The list shows a part of the results.
measured-attribute: normalized growth
// return a plain number; no unit text

Name the recorded normalized growth of the compound listed here: COc1ccc2c(c1)OCC(Cc1ccc(OC)c(OC(C)=O)c1)C2=O (stereo not drawn)
1

Quickly give me recorded normalized growth for CN(C)CCC(c1ccccc1)c1ccccn1 (stereo not drawn)
1.01

Please look at this compound and report its normalized growth: CCOC(=O)CNc1ccc(Cl)c(Cl)c1
0.975
